Provenance of the data: paper PMC13494018

# Assayed system: PDL1, Q9NZQ7
# Sequence (Q9NZQ7 whole entry): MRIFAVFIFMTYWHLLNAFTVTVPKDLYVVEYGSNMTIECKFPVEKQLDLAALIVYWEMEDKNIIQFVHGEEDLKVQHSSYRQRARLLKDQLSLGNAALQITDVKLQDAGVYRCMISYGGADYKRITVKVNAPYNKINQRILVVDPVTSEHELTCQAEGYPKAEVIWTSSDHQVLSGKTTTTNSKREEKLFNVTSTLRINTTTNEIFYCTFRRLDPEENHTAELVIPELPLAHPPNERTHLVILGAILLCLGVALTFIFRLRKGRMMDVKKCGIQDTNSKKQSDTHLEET

[
  {
    "Binder": "d8r1_design_ppi_669_dldesign_0_cycle1_af2pred (protein) AAAAAAANVRKVGEVSIEYVERVDAVSGANFAAGAFRGLATLLPPEVAKHAAAAAEKVRETGEKETKEALIETIRTTTAEIAALIEA",
    "binding in a display sort": "not found (inactive)"
  },
  {
    "Binder": "d8r1_design_ppi_863_dldesign_0_cycle0_af2pred (protein) SRAERLIEEAERLAKEAKEAAKRVADSPVAPRAKALADATEAFAKGLKAAAAAGGSMEDQEALLRAARNTAEAAKILAEEAEAARAA",
    "binding in a display sort": "not found (inactive)"
  },
  {
    "Binder": "d8r1_design_ppi_1305_dldesign_0_cycle0_af2pred (protein) ARAEELAEALLAKAKELSKLPMGEAAKAAAAEARALAEQDPETALAAAELAYKRASEDPSVSSKVRALLGAALGAATQQLAAQKAAA",
    "binding in a display sort": "not found (inactive)"
  }
]
